Assay: Serum stability
Assay type: in vitro ADME
Details: rat, up to 6 h, more sensitive LC-MS, read-out: Degradation in serum
Experimental: Purified DP-7-11 (1 mg/mL) was dissolved in 0.1 M ammonium bicarbonate (NH4HCO3) buffer. To prepare a stock trypsin solution, 1 mg trypsin was dissolved in 50 mL of 0.1 M NH4HCO3 buffer. Equal volumes of the stock trypsin solution (62.5 μL) and DP-7-11 solution (62.5 μL) were incubated in 375 μL of 0.1M NH4HCO3 buffer in a 37° C. water bath. […] Supernatant was sampled and analysed using analytical RP-HPLC or LC-MS. […]
quantity: metabolised at 6 h, 0.125 mg/mL

What value of measured metabolised at 6 h, 0.125 mg/mL is listed for CC1(C)CNC(=O)C[C@H](C(=O)N[C@@H](CCCNC(=N)N)C(=O)N[C@@H](CCCNC(=N)N)C(N)=O)NC(=O)[C@H](Cc2ccccc2)NC(=O)CNC(=O)[C@@H](NC(=O)[C@@H](N)Cc2ccc(O)cc2)CSS1 ?
~10%
